- Experimental context: 293.15 K; 101.33 kPa; Liquid; Pycnometric method
Measured mass density, listed per entry.
Response body: numeric value in kg/m3, unit text excluded.

Some solved entries appear below for comparison.
[
  {
    "Compound": "O [water]",
    "Endpoint result": 999
  },
  {
    "Compound": "CC(=O)O [acetic acid]",
    "Endpoint result": 1055
  }
]

Lookup: Entry CCO [ethanol] has what mass density?
Found: 790

Lookup: Would you kindly repeat that for CO [methanol] ?
Found: 793

----------
- Experimental context: Liquid; Ebulliometric method (Recirculating still)
Measured Normal boiling temperature, listed per entry.
Response body: numeric value in °C, unit text excluded.

[
  {
    "Chemical smiles": "CC(=O)O",
    "Metric": "Normal boiling temperature",
    "Readout unit": "°C",
    "Endpoint result": 118.0
  }
]

Lookup: Entry CCO has what Normal boiling temperature?
Found: 78.20

Lookup: Would you kindly repeat that for O ?
Found: 100.0

Lookup: Would you kindly repeat that for CO ?
Found: 64.70

----------
- Test description: refractive index (Na D-line) (dimensionless)
- Experimental context: 293.15 K; 101.33 kPa; Liquid; Standard Abbe refractometry
Metric: refractive index
Just the number.

Some solved entries appear below for comparison.
[
  {
    "Molecule": "CCO [ethanol]",
    "refractive index": 1.3612
  },
  {
    "Molecule": "O [water]",
    "refractive index": 1.3342
  }
]

Lookup: Entry CC(=O)O [acetic acid] has what refractive index?
Found: 1.372

Lookup: Would you kindly repeat that for CO [methanol] ?
Found: 1.328

----------
- Test description: relative permittivity at zero frequency (dimensionless)
- Experimental context: 293.15 K; 91.3 kPa; Liquid; Coaxial cylinder capacitor
Numbers after ± are expanded uncertainties.
Measured relative permittivity at zero frequency, listed per entry.

Some solved entries appear below for comparison.
[
  {
    "Chemical smiles": "CO",
    "relative permittivity at zero frequency": "33 ± 0.11"
  },
  {
    "Chemical smiles": "CCO",
    "relative permittivity at zero frequency": "25.02 ± 0.08"
  }
]

Lookup: Entry O has what relative permittivity at zero frequency?
Found: 79.99 ± 0.25

Lookup: Would you kindly repeat that for CC(=O)O ?
Found: 6.15 ± 0.02
